Each entry below lists one item and its recorded combination Emax value.
- System: HCC-827 (Lung Adenocarcinoma)
- Experimental Protocol: combination Emax (second highest fraction inhibited in the dose matrix, 72 h); higher = more inhibition; extreme values may be limits of the assay
Parameter: combination Emax

Molecule	Parameter	Measurement
Cc1cc2ncnn2cc1Nc1ncc2c(n1)n(C1CCOCC1)c(=O)n2C [AZD7648] + CCN(CCO)CCCOc1ccc2c(Nc3cc(CC(=O)Nc4cccc(F)c4)[nH]n3)ncnc2c1 [AZD2811] (first compound max 10 µM, 7x7, partner max 1 µM)	combination Emax	0.24
CC1(C)CCC(CN2CCN(c3ccc(C(=O)NS(=O)(=O)c4ccc(NCC5CCOCC5)c([N+](=O)[O-])c4)c(Oc4cnc5[nH]ccc5c4)c3)CC2)=C(c2ccc(Cl)cc2)C1 [Venetoclax] + CN(C)CCCOc1ccc(-c2ccc3ncc4c(c3c2)n(C2CCOCC2)c(=O)n4C)cn1 [AZD0156] (first compound max 1 µM, 7x7, partner max 1 µM)	combination Emax	0.26

====

- Tested on: 647-V (Bladder Carcinoma)
- Experimental Protocol: combination Emax (second highest fraction inhibited in the dose matrix, 72 h); higher = more inhibition; extreme values may be limits of the assay
Each entry below lists one item and its recorded combination Emax value.

Compound	combination Emax
CN(CCO)CC[C@H](CSc1ccccc1)Nc1ccc(S(=O)(=O)NC(=O)c2ccc(N3CCC([C@@H](O)c4ccccc4-c4ccc(Cl)cc4)CC3)cc2)cc1S(=O)(=O)C(F)(F)F [AZD4320] + C1CN(CCC1(C(=O)N[C@@H](CCO)C2=CC=C(C=C2)Cl)N)C3=NC=NC4=C3C=CN4 [Capivasertib] (first compound max 1 µM, 7x7, partner max 3 µM)	0.147
C[C@@H]1COCCN1c1cc(C2([S@](C)(=N)=O)CC2)nc(-c2ccnc3[nH]ccc23)n1 [AZD6738] + O=C(c1cc(Cc2n[nH]c(=O)c3ccccc23)ccc1F)N1CCN(C(=O)C2CC2)CC1 [Olaparib] (first compound max 10 µM, 7x7, partner max 10 µM)	0.61
COc1nnc2ccc(N3CCC(c4ccc(OCCN5CCN(C)C(=O)[C@H]5C)cc4)CC3)nn12 [AZD5153] + C=CCn1c(=O)c2cnc(Nc3ccc(N4CCN(C)CC4)cc3)nc2n1-c1cccc(C(C)(C)O)n1 [AZD1775] (first compound max 1 µM, partner max 1 µM)	0.637
CN(CCO)CC[C@H](CSc1ccccc1)Nc1ccc(S(=O)(=O)NC(=O)c2ccc(N3CCC([C@@H](O)c4ccccc4-c4ccc(Cl)cc4)CC3)cc2)cc1S(=O)(=O)C(F)(F)F [AZD4320] + Cn1cnc2c(F)c(Nc3ccc(Br)cc3Cl)c(C(=O)NOCCO)cc21 [Selumetinib] (first compound max 1 µM, 7x7, partner max 3 µM)	0.971

====

- Tested on: CAL-39 (Other Solid Carcinomas)
- Experimental Protocol: Bliss excess, mean over the matrix (fraction); higher = more synergy
Parameter: Bliss excess

Compound	Parameter	Measurement
C[C@@H](Nc1cc(F)cc(F)c1)c1cc(C(=O)N(C)C)cc2c(=O)cc(N3CCOCC3)oc12 [AZD8186] + C1CN(CCC1(C(=O)N[C@@H](CCO)C2=CC=C(C=C2)Cl)N)C3=NC=NC4=C3C=CN4 [AZD5363] (first compound max 10 µM, 7x7, partner max 10 µM)	Bliss excess	0.0492
CN(CCO)CC[C@H](CSc1ccccc1)Nc1ccc(S(=O)(=O)NC(=O)c2ccc(N3CCC([C@@H](O)c4ccccc4-c4ccc(Cl)cc4)CC3)cc2)cc1S(=O)(=O)C(F)(F)F [AZD4320] + C[C@@H]1COCCN1C2=NC(=NC(=C2)C3(CC3)[S@](=N)(=O)C)C4=C5C=CNC5=NC=C4 [AZD6738] (first compound max 1 µM, 7x7, partner max 10 µM)	Bliss excess	-0.0685
O=C(c1cc(Cc2n[nH]c(=O)c3ccccc23)ccc1F)N1CCN(C(=O)C2CC2)CC1 [Olaparib] + CC1(C)CCC(CN2CCN(c3ccc(C(=O)NS(=O)(=O)c4ccc(NCC5CCOCC5)c([N+](=O)[O-])c4)c(Oc4cnc5[nH]ccc5c4)c3)CC2)=C(c2ccc(Cl)cc2)C1 [Venetoclax] (first compound max 10 µM, 7x7, partner max 1 µM)	Bliss excess	-0.0425

====

- System: RCC10RGB (Kidney Carcinoma)
- Experimental Protocol: Bliss excess, mean over the matrix (fraction); higher = more synergy

Compound	Bliss excess
NC1(C(=O)N[C@@H](CCO)c2ccc(Cl)cc2)CCN(c2ncnc3[nH]ccc23)CC1 [Capivasertib] + C[C@@H]1COCCN1C2=NC(=NC(=C2)C3(CC3)[S@](=N)(=O)C)C4=C5C=CNC5=NC=C4 [AZD6738] (first compound max 10 µM, 7x7, partner max 10 µM)	-0.134
Cc1c2c(nn1C)CSCc1cc(n(C)n1)CSc1cc(c3ccccc3c1)OCCCc1c(C(=O)O)n(C)c3c-2c(Cl)ccc13 [AZD5991] + CC1(C)CCC(CN2CCN(c3ccc(C(=O)NS(=O)(=O)c4ccc(NCC5CCOCC5)c([N+](=O)[O-])c4)c(Oc4cnc5[nH]ccc5c4)c3)CC2)=C(c2ccc(Cl)cc2)C1 [Venetoclax] (first compound max 1 µM, 7x7, partner max 1 µM)	-0.0086
Cc1c2c(nn1C)CSCc1cc(n(C)n1)CSc1cc(c3ccccc3c1)OCCCc1c(C(=O)O)n(C)c3c-2c(Cl)ccc13 [AZD5991] + Cc1cc2ncnn2cc1Nc1ncc2c(n1)n(C1CCOCC1)c(=O)n2C [AZD7648] (first compound max 1 µM, 7x7, partner max 10 µM)	0.0033
Cc1cc2ncnn2cc1Nc1ncc2c(n1)n(C1CCOCC1)c(=O)n2C [AZD7648] + CN(C)CCCOc1ccc(-c2ccc3ncc4c(c3c2)n(C2CCOCC2)c(=O)n4C)cn1 [AZD0156] (first compound max 10 µM, 7x7, partner max 1 µM)	-0.0735
COc1cccc(OCCCN)c1-c1cc(Nc2cnc(C#N)cn2)n[nH]1 [Prexasertib] + O=C(c1cc(Cc2n[nH]c(=O)c3ccccc23)ccc1F)N1CCN(C(=O)C2CC2)CC1 [Olaparib] (first compound max 1 µM, 7x7, partner max 10 µM)	-0.0784
CN(C)CCCOc1ccc(-c2ccc3ncc4c(c3c2)n(C2CCOCC2)c(=O)n4C)cn1 [AZD0156] + CCN(CCO)CCCOc1ccc2c(Nc3cc(CC(=O)Nc4cccc(F)c4)[nH]n3)ncnc2c1 [AZD2811] (first compound max 1 µM, 7x7, partner max 1 µM)	-0.039
NC1(C(=O)N[C@@H](CCO)c2ccc(Cl)cc2)CCN(c2ncnc3[nH]ccc23)CC1 [Capivasertib] + CCN(CCO)CCCOc1ccc2c(Nc3cc(CC(=O)Nc4cccc(F)c4)[nH]n3)ncnc2c1 [AZD2811] (first compound max 10 µM, 7x7, partner max 1 µM)	-0.0838
CN(CCO)CC[C@H](CSc1ccccc1)Nc1ccc(S(=O)(=O)NC(=O)c2ccc(N3CCC([C@@H](O)c4ccccc4-c4ccc(Cl)cc4)CC3)cc2)cc1S(=O)(=O)C(F)(F)F [AZD4320] + Cc1cc2ncnn2cc1Nc1ncc2c(n1)n(C1CCOCC1)c(=O)n2C [AZD7648] (first compound max 1 µM, 7x7, partner max 10 µM)	-0.077
Cn1cnc2c(F)c(Nc3ccc(Br)cc3Cl)c(C(=O)NOCCO)cc21 [Selumetinib] + C[C@@H]1COCCN1C2=NC(=NC(=C2)C3(CC3)[S@](=N)(=O)C)C4=C5C=CNC5=NC=C4 [AZD6738] (first compound max 10 µM, 7x7, partner max 10 µM)	0.119
NC1(C(=O)N[C@@H](CCO)c2ccc(Cl)cc2)CCN(c2ncnc3[nH]ccc23)CC1 [Capivasertib] + CC(C)n1c(=O)n(C)c2cnc3cc(F)c(-c4ccc(OCCCN5CCCCC5)nc4)cc3c21 [AZD1390] (first compound max 10 µM, 7x7, partner max 0.3 µM)	-0.0676
CC(=O)Nc1cccc(-n2c(=O)n(C3CC3)c(=O)c3c(Nc4ccc(I)cc4F)n(C)c(=O)c(C)c32)c1 [Trametinib] + Cc1nc(-c2cn3c(n2)-c2ccc(-c4cnn(C(C)(C)C(N)=O)c4)cc2OCC3)n(C(C)C)n1 [Taselisib] (first compound max 1 µM, 7x7, partner max 10 µM)	-0.0186
C[C@@H](c1ccc2nccn2c1)n1nnc2ncc(-c3cnn(C)c3)nc21 [Savolitinib] + CC1(C)CCC(CN2CCN(c3ccc(C(=O)NS(=O)(=O)c4ccc(NCC5CCOCC5)c([N+](=O)[O-])c4)c(Oc4cnc5[nH]ccc5c4)c3)CC2)=C(c2ccc(Cl)cc2)C1 [Venetoclax] (first compound max 1 µM, 7x7, partner max 1 µM)	-0.0768
CCN(CCO)CCCOc1ccc2c(Nc3cc(CC(=O)Nc4cccc(F)c4)[nH]n3)ncnc2c1 [AZD2811] + O=C(c1cc(Cc2n[nH]c(=O)c3ccccc23)ccc1F)N1CCN(C(=O)C2CC2)CC1 [Olaparib] (first compound max 1 µM, 7x7, partner max 10 µM)	-0.0004

Ref: the supplement of paper PMC11061612
